target: BRM (Homo sapiens); construct: In-Cell Western Screen of BRM Degradation in SW1573 Cells; endogenous in cells; host or cells: SW1573; experiment: In-cell Western screen of BRM degradation in SW1573 cells (Dmax and DC50); assay type: cell-based; settings: BRM degradation, SW1573 cells; Table 2D; read-out: *DC50
Sequence (P51531 whole entry): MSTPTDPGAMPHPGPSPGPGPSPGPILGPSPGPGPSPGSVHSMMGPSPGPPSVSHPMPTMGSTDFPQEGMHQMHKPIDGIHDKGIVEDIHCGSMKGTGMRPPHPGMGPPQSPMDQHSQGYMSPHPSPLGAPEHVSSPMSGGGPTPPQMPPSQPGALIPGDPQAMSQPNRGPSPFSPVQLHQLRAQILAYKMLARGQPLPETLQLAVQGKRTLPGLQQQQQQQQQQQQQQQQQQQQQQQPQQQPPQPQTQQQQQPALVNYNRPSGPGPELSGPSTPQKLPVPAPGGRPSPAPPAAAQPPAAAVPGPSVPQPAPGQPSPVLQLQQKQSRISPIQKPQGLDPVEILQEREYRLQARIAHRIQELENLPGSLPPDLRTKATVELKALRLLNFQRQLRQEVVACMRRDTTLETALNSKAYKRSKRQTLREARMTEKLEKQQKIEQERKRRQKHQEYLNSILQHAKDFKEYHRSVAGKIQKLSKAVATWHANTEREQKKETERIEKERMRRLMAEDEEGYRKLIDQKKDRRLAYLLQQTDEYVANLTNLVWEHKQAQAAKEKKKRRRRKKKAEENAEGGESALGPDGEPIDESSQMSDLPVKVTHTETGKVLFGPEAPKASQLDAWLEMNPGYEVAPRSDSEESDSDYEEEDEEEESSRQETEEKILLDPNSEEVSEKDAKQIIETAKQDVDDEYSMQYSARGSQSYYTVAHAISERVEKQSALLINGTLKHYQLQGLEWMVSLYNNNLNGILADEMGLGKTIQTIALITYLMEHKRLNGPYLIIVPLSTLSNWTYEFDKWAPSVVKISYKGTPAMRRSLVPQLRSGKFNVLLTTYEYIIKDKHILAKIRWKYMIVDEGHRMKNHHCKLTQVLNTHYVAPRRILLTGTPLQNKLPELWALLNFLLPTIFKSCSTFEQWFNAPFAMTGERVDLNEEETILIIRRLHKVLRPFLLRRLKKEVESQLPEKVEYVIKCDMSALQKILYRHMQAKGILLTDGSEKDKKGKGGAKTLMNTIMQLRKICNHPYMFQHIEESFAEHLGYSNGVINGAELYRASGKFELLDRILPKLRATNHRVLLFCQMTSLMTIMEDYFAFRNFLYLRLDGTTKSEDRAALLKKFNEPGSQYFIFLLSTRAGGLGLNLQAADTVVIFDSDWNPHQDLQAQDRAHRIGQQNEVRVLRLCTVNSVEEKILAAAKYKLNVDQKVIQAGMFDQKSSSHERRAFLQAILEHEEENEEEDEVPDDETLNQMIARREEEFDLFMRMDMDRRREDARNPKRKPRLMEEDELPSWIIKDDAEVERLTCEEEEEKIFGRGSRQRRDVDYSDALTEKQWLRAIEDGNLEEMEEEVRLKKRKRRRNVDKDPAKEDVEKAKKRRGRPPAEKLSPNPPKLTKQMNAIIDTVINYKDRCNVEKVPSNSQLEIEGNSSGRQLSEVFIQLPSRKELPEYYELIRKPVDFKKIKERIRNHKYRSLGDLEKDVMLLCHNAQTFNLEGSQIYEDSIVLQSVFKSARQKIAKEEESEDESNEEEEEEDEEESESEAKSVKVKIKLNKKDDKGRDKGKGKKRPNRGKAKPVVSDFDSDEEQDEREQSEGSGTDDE
Property: DC50

CC(C)[C@@H](C(=O)N1C[C@H](O)C[C@H]1C(=O)N[C@@H](C)c1ccc(-c2ccnn2C)cc1)c1cc(N2CCC(CN3CCC(O[C@H]4C[C@H](Oc5cc(N6C7CCC6CN(c6cc(-c8ccccc8O)nnc6N)C7)ccn5)C4)CC3)CC2)no1 = < 2.5 nM
Cc1ncsc1-c1ccc([C@H](C)NC(=O)[C@@H]2C[C@@H](O)CN2C(=O)[C@@H](c2cc(N3CCC(CN4CCC([C@@H](C)n5cc(-c6cc(-c7ccccc7O)nnc6N)cn5)CC4)CC3)no2)C(C)C)cc1 (single isomer, unassigned) = < 2.5 nM
Cc1ncsc1-c1ccc([C@H](C)NC(=O)[C@@H]2C[C@@H](O)CN2C(=O)[C@@H](c2cc(OCCC3CCN(C[C@H]4C[C@H](Oc5cc(N6C7CCC6CN(c6cc(-c8ccccc8O)nnc6N)C7)ccn5)C4)CC3)no2)C(C)C)c(F)c1F = < 2.5 nM
Cc1ncsc1-c1ccc([C@H](CCCC(N)=O)NC(=O)[C@@H]2C[C@@H](O)CN2C(=O)[C@@H](c2cc(OCCN3CCC(O[C@H]4C[C@H](Oc5cc(N6C7CCC6CN(c6cc(-c8ccccc8O)nnc6N)C7)ccn5)C4)CC3)no2)C(C)C)cc1 = < 2.5 nM
Cc1ncsc1-c1cc(F)c([C@H](C)NC(=O)[C@@H]2C[C@@H](O)CN2C(=O)[C@H](c2cc(OCCC3CCN(C[C@H]4C[C@H](Oc5cc(N6C7CCC6CN(c6cc(-c8ccccc8O)nnc6N)C7)ccn5)C4)CC3)no2)C(C)C)cc1F = < 2.5 nM

Specify reported DC50 for the compound shown: Cc1ncsc1-c1ccc([C@H](C)NC(=O)[C@@H]2C[C@@H](O)CN2C(=O)[C@@H](c2cc(OCC[C@@H]3CCN(C[C@H]4C[C@H](Oc5cc(N6C7CCC6CN(c6cc(-c8ccccc8O)nnc6N)C7)ccn5)C4)C[C@@H]3C)no2)C(C)C)cc1 (racemic)
< 2.5 nM

Specify reported DC50 for the compound shown: "Cc1ncsc1-c1ccc([C@H](C)NC(=O)[C@@H]2C[C@@H](O)CN2C(=O)[C@@H](c2cc(N3CCN(CCOc4cc(N5C6CCC5CN(c5cc(-c7ccccc7O)nnc5N)C6)ccn4)CC3)no2)C(C)C)cc1"
< 2.5 nM

Specify reported DC50 for the compound shown: "Cc1ncsc1-c1ccc([C@@H](NC(=O)[C@@H]2C[C@@H](O)CN2C(=O)[C@H](c2cc(N3CCC(CN4CCC(O[C@H]5C[C@H](Oc6cc(N7C8CCC7CN(c7cc(-c9ccccc9O)nnc7N)C8)ccn6)C5)CC4)CC3)no2)C(C)C)C(F)F)cc1"
> 30 nM
